- TARGET SYSTEM: Bcl-2 protein (Recombinant Human Bcl-2 Protein) (Homo sapiens, UniProt P10415)
- Construct: purchased Novus Biologicals NBP2-34889
- Sequence (P10415 whole entry): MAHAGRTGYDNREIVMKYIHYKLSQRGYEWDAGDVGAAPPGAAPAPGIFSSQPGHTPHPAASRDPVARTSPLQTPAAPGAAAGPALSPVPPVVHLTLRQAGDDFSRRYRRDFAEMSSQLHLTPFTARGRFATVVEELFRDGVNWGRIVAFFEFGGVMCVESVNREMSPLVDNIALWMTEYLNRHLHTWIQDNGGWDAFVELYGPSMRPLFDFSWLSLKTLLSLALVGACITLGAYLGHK
- ASSAY OVERVIEW: AS-MS evaluation of binding of the Example 4 mixture library (1200 compounds/well) to Bcl-2, ASMS ratio (%)
- APPLIED CONDITIONS: AS-MS, Example 4 mixture library, Bcl-2, replicate n = 1

MOLECULE	TARGET SYSTEM	ASMS ratio (%) n = 1
CCOc1cncc(-c2ccc(CN3CCN(c4ccc(C(=O)NS(=O)(=O)CCC(F)(F)F)cc4)CC3)c(CC)c2)c1 [Compound B2N050-01]	Bcl-2 protein (Recombinant Human Bcl-2 Protein) (Homo sapiens, UniProt P10415)	0.0
CCOc1cncc(-c2cnn(-c3cc(C(=O)N4CCN(c5ccc(C(=O)NS(=O)(=O)CCC(F)(F)F)cc5)CC4)cc(C(F)(F)F)c3)c2)c1 [Compound B2N044-01]	Bcl-2 protein (Recombinant Human Bcl-2 Protein) (Homo sapiens, UniProt P10415)	0.2
CCOc1cccc(-c2ccccc2CCC(=O)N2CCN(c3ccc(C(=O)NS(=O)(=O)c4ccc(NCCSc5ccccc5)c(C(F)(F)F)c4)nn3)CC2)c1 [Compound B2R011-01]	Bcl-2 protein (Recombinant Human Bcl-2 Protein) (Homo sapiens, UniProt P10415)	17.7
CCOc1cncc(-c2ccc(CN3CCN(c4ccc(C(=O)NS(=O)(=O)CCC(F)(F)F)cc4)CC3)c3ccccc23)c1 [Compound B2N066-01]	Bcl-2 protein (Recombinant Human Bcl-2 Protein) (Homo sapiens, UniProt P10415)	0.0
CCOc1cccc(C#Cc2cncc(C(=O)N3CCN(c4ccc(C(=O)NS(=O)(=O)c5ccc(NCCSc6ccccc6)c(C(F)(F)F)c5)nn4)CC3)c2)c1 [Compound B2R009-01]	Bcl-2 protein (Recombinant Human Bcl-2 Protein) (Homo sapiens, UniProt P10415)	0.0
CCOc1cncc(-c2ccc(CN3CCN(c4ccc(C(=O)NS(=O)(=O)C(C)(C)C)nn4)CC3)c3ccccc23)c1 [Compound B2L092-01]	Bcl-2 protein (Recombinant Human Bcl-2 Protein) (Homo sapiens, UniProt P10415)	5.5
CCOc1cncc(-c2ccc(C(=O)N3CCN(c4ccc(C(=O)NS(=O)(=O)c5ccc(NCCSc6ccccc6)c(C(F)(F)F)c5)nn4)CC3)cc2C)c1 [Compound B2R004-01]	Bcl-2 protein (Recombinant Human Bcl-2 Protein) (Homo sapiens, UniProt P10415)	0.0
CCOc1cccc(-c2csc(C(=O)N3CCN(c4ccc(C(=O)NS(=O)(=O)CCC(F)(F)F)cc4)CC3)c2)c1 [Compound B2N023-01]	Bcl-2 protein (Recombinant Human Bcl-2 Protein) (Homo sapiens, UniProt P10415)	0.0
CCOc1cncc(-c2cc(C(=O)N3CCN(c4ccc(C(=O)NS(=O)(=O)c5ccc(NCCSc6ccccc6)c(C(F)(F)F)c5)cc4)CC3)cc(C(F)(F)F)c2)c1 [Compound B2R040-01]	Bcl-2 protein (Recombinant Human Bcl-2 Protein) (Homo sapiens, UniProt P10415)	2.6
CCOc1cncc(-c2ccccc2CN2CCN(c3ccc(C(=O)NS(=O)(=O)CCC(F)(F)F)nn3)CC2)c1 [Compound B2N072-01]	Bcl-2 protein (Recombinant Human Bcl-2 Protein) (Homo sapiens, UniProt P10415)	0.0
CCOc1cncc(-c2csc(CN3CCN(c4ccc(C(=O)NS(=O)(=O)CCC(F)(F)F)cc4)CC3)c2)c1 [Compound B2N068-01]	Bcl-2 protein (Recombinant Human Bcl-2 Protein) (Homo sapiens, UniProt P10415)	0.0
CCOc1cncc(-c2ccc(CN3CCN(c4ccc(C(=O)NS(=O)(=O)CCC(F)(F)F)cc4)CC3)cc2F)c1 [Compound B2N052-01]	Bcl-2 protein (Recombinant Human Bcl-2 Protein) (Homo sapiens, UniProt P10415)	0.0
